target: ENL YEATS domain (Homo sapiens (Human), UniProt Q03111)
Sequence (Q03111 1-138): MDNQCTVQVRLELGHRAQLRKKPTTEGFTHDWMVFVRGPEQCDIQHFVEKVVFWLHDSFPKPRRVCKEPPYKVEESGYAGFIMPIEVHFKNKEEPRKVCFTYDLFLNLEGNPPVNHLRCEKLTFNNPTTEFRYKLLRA
Collected pIC50 values appear next to each entry.
Note on pIC50: it is the negative log10 of concentration, concentration in mol/L.

Check out these entries, answers already filled in.
* Cc1ncc2cc(C(=O)Nc3cc4[nH]c([C@H]5CCCN5C)cc4cn3)ccn12 | 7.08
* CNc1nn(C)c2cc(C(=O)Nc3cc4[nH]c([C@H]5CCCN5C)cc4cn3)ccc12 | 6.99
* COc1c(C(=O)Nc2cc3[nH]c([C@H]4CCCN4C)cc3cn2)ccc2c(C)n[nH]c12 | 6.50
* Cc1nn(C)c2cc(C(=O)Nc3cc4[nH]c([C@H]5CCCN5C)cc4cn3)ccc12 | 7.47
* Cc1noc2c(F)c(C(=O)Nc3ccc4nc([C@H]5CCCN5C)[nH]c4c3)ccc12 | 6.90
* Cc1n[nH]c2ccc(C(=O)Nc3cc4[nH]c([C@H]5CCCN5C)cc4cn3)cc12 | 7.24
* CC(O)c1ncc2cc(C(=O)Nc3cc4[nH]c([C@H]5CCCN5C)cc4cn3)ccn12 (some centres unmarked) | 6.69
* CN1CCC[C@@H]1c1cc2cnc(NC(=O)c3ccc4c(C(F)(F)F)nn(C)c4c3)cc2[nH]1 | 7.37

Q) Notebook: pull reported pIC50 for ENL YEATS domain (Homo sapiens (Human), UniProt Q03111), entry `CNc1c(OC)cnc2cc(C(=O)Nc3cc4[nH]c([C@H]5CCCN5C)cc4cn3)ccc12`
A) 7.55

Q) Now give it for `CN1CCC[C@@H]1c1cc2cnc(NC(=O)c3ccc4c(c3)nnn4C)cc2[nH]1` too.
A) 6.97

Q) Now give it for `CN1CCC[C@@H]1c1nc2cc(NC(=O)c3cc4cnn(-c5ccncc5)c4cc3F)ccc2[nH]1` too.
A) 6.85

Q) Now give it for `CN1CCC[C@@H]1c1cc2cnc(NC(=O)c3ccc4[nH]nc(Cl)c4c3)cc2[nH]1` too.
A) 7.43

Q) Now give it for `CN1CCC[C@@H]1c1cc2cnc(NC(=O)c3ccc4ccn(C)c4c3)cc2[nH]1` too.
A) 6.33

Q) Now give it for `CN1CCC[C@@H]1c1cc2cnc(NC(=O)c3ccn4c(C5COC5)ncc4c3)cc2[nH]1` too.
A) 6.97

====

Measured IC50 (ENL YEATS domain (Homo sapiens (Human), UniProt Q03111))
// units = nM; emit number, no label

Check out these entries, answers already filled in.
• CN1CCC[C@@H]1c1cc2cnc(NC(=O)c3ccc4c(c3)ncn4C)cc2[nH]1 [Example 59] = 53
• CC(C)c1ncc2cc(C(=O)Nc3cc4[nH]c([C@H]5CCCN5C)cc4cn3)ccn12 [Example 67] = 75

Q) State the recorded IC50 for this entry: CN1CCCCC1c1nc2cc(NC(=O)c3ccc4c(cnn4C)c3)ccc2[nH]1 (stereo not shown) [Example 9]
A) 200

Q) Now give it for CN1CCC[C@@H]1c1cc2cnc(NC(=O)c3ccc4nnn(C)c4c3)cc2[nH]1 [Example 72] too.
A) 120

Q) Now give it for CN1CCC[C@@H]1c1cc2cnc(NC(=O)c3ccn4c(C(F)(F)F)ncc4c3)cc2[nH]1 [Example 35] too.
A) 114

Q) Now give it for CN1CCC[C@@H]1c1cc2cnc(NC(=O)c3ccc4c(cnn4-c4ccncc4)c3)cc2[nH]1 [Example 84] too.
A) 31

Q) Now give it for Cc1nccc2cc(C(=O)Nc3cc4[nH]c([C@H]5CCCN5C)cc4cn3)ccc12 [Example 65] too.
A) 18

Q) Now give it for Cc1cnn2ccc(C(=O)Nc3cc4[nH]c([C@H]5CCCN5C)cc4cn3)cc12 [Example 36] too.
A) 43

Q) Now give it for CN1CCC[C@@H]1c1cc2cnc(NC(=O)c3ccc4c(C5CC5)nn(C)c4c3)cc2[nH]1 [Example 29] too.
A) 21

====

Measured IC50 (ENL YEATS domain (Homo sapiens (Human), UniProt Q03111))
// units = nM; emit number, no label

- CN1CCCC[C@@H]1c1cc2cnc(NC(=O)c3ccc4c(F)nn(C)c4c3)cc2[nH]1: 51
- CN1CCCC[C@@H]1c1cc2cnc(NC(=O)c3ccc4c(=O)n(C)cnc4c3)cc2[nH]1: 177
- CN1C(=O)Cc2ccc(C(=O)Nc3cc4[nH]c([C@H]5CCCCN5C)cc4cn3)cc21: 220

Q) Notebook: pull reported IC50 for ENL YEATS domain (Homo sapiens (Human), UniProt Q03111), entry `CN1CCC[C@@H]1c1cc2cnc(NC(=O)c3ccn4ccnc4c3)cc2[nH]1`
A) 293

Q) Now give it for `CN1CCCC[C@@H]1c1cc2cnc(NC(=O)c3ccc4ncn(C)c(=O)c4c3)cc2[nH]1` too.
A) 200

Q) Now give it for `CN1CCC[C@@H]1c1cc2cnc(NC(=O)c3ccc4cnn(C)c4c3)cc2[nH]1` too.
A) 94

Q) Now give it for `COCCNc1nn(C)c2cc(C(=O)Nc3cc4[nH]c([C@H]5CCCN5C)cc4cn3)ccc12` too.
A) 100
